The reported measurements were obtained from PubChem BioAssay (NCATS).

# TESTED_SYSTEM: Glucocorticoid receptor (Homo sapiens) (UniProt P04150)
# Sequence (P04150 whole entry, looked up): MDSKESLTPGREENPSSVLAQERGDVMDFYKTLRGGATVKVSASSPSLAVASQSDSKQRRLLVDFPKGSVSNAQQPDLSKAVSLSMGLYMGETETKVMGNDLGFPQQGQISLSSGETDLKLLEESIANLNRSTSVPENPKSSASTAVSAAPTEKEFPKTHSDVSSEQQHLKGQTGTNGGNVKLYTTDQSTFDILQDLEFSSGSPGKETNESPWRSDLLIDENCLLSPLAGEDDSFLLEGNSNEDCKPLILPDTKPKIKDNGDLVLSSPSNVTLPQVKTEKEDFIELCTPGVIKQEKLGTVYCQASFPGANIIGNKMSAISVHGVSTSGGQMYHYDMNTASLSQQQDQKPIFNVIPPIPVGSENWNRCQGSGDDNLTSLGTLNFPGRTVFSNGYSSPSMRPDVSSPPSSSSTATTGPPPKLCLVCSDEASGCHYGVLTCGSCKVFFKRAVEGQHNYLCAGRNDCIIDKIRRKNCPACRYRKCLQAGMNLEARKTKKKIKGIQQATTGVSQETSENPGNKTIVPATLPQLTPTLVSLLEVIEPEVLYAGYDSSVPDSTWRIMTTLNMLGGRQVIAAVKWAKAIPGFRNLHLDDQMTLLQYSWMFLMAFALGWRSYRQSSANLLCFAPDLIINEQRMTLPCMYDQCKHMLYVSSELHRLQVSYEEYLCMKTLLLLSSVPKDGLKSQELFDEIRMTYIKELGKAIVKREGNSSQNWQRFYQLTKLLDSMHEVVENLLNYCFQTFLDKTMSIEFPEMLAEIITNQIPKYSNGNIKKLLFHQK
# METHOD_NOTES: GR-GFP Redistribution (AID 450)
# EXPERIMENTAL_CONTEXT: U2OS GR-GFP nuclear translocation, laser cytometry, 2 h
Active and inactive are the calls of the source.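 How the source made its calls: active means compounds whose dose series gives a full or clear partial fitted curve of increased nuclear translocation; inconclusive means weak partial curve or effect only at the top dose; inactive means no dose-dependent translocation response.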
Result category, one only: active, inactive

See these solved cases before continuing.
compound=O=C(O)C[C@@H](C(=O)O)c1ccccc1[N+](=O)[O-] label=inactive
compound=CC1=NNC(=S)NCCCN2CCN(CCCNC(=S)NN=C(C)C=NNC(=S)NCCCN3CCN(CCCNC(=S)NN=C1)CC3)CC2 label=inactive
compound=COc1cc2nc(N3CCN(C(=O)OCc4ccccc4)[C@H](C(=O)NC(C)(C)C)C3)nc(N)c2cc1OC label=inactive

What did this assay record as the result for O=C(O)C[C@H](NC(=O)CP(=O)(O)O)C(=O)O.[NH-][C@@H]1CCCC[C@@H]1[NH-].[Pt] ? inactive

What did this assay record as the result for C[C@H]1C[C@@H]2[C@H]3CCC4=CC(=O)C=C[C@@]4(C)[C@]3(Cl)[C@@H](Cl)C[C@]2(C)[C@]1(O)C(=O)COP(=O)(O)O ? active

What did this assay record as the result for CN(C)CCSS(=O)(=O)O ? inactive
